Taken from PubChem BioAssay AID1159580.

Test: chemical genetic growth profiling, strain panel (AID 1159580);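 note: tested at 20 µM; growth read once vehicle control cultures reached saturation at 30 °C; 1 = growth at the plate median or of vehicle wells; lower values mean less growth of the strain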
Conditions: S. cerevisiae deletion strains, growth OD, locus YJR043C, strain POL32, hits give low values
Out of some 5,500 compounds screened, about 2,000 (36%) were called active. Another 18% or so got no clear call; they are omitted. This is one part of the list.
Exercise: state measured normalized growth for each of the compounds provided.
One number for each entry.

// solved cases for normalized growth follow
- Compound: "COC(=O)c1cc(OC)c(OC)c(OC)c1NS(=O)(=O)c1cc(OC)ccc1OC"
  Readout Label: "normalized growth"
  Measured Number: 0.987
- Compound: "CCc1ccc(CCOc2ccc(CC3SC(=O)NC3=O)cc2)nc1 (stereo unspecified)"
  Readout Label: "normalized growth"
  Measured Number: 0.991
- Compound: "NC1=C(c2ccccc2)C(=O)NC1=O"
  Readout Label: "normalized growth"
  Measured Number: 1.01

Lab note: each compound below needs its normalized growth filled in.
1. NC/C=C/C(=O)O
2. COC1C(O)C(O)C(O)[C@@H](O)C1O (stereo partly specified)

1.04
0.989

Lab note: each compound below needs its normalized growth filled in.
1. CN(C)/C=C1\C(=O)c2ccccc2N(C)S1(=O)=O
2. NC[C@@H]1O[C@H](O[C@@H]2[C@@H](CO)OC(O[C@@H]3[C@@H](O)[C@H](N)C[C@H](N)[C@H]3OC3O[C@H](CN)[C@@H](O)[C@H](O)[C@H]3N)[C@@H]2O)[C@H](N)[C@@H](O)[C@@H]1O (stereo partly specified)

1: 0.989; 2: 1.01

Lab note: each compound below needs its normalized growth filled in.
1. CN1C/C(=C\c2ccccc2Cl)C(=O)/C(=C/c2ccccc2Cl)C1
2. CNC(=S)NN=C(N)c1ccccn1
3. CNC1(C)C2CCC(C2)C1(C)C (stereo unspecified)

[0.971, 1.01, 1.02]

Lab note: each compound below needs its normalized growth filled in.
1. CN1C(=O)CN=C(c2ccccc2)c2ccccc21
2. CCC(C(=O)O)c1ccccc1 (stereo unspecified)
3. Cc1c(C(=O)O)cc(-c2ccccc2)n1-c1ccccc1
4. C[N+](C)(C)CCOP(=O)([O-])OP(=O)(O)OC[C@H]1OC(n2ccc(N)nc2=O)[C@H](O)[C@@H]1O (stereo partly specified)
5. CN1CCc2cc3c(cc2C1O)OCO3 (stereo unspecified)

[1.01, 1.03, 0.999, 1.02, 0.975]

Lab note: each compound below needs its normalized growth filled in.
1. COc1ccccc1C1CCN(C(=O)c2ccc(F)cc2)CC1
2. CC(=O)Nc1cccc(-n2nnc(SCc3ccccc3)n2)c1
3. CO[C@H]1C[C@H](O[C@H]2[C@H](C)[C@@H](OC3O[C@H](C)C[C@H](N(C)C)[C@H]3O)[C@@H](C)C[C@]3(CO3)C(=O)[C@H](C)[C@@H](O)[C@@H](C)[C@@H](C)OC(=O)[C@@H]2C)O[C@@H](C)[C@@H]1O (stereo partly specified)
4. COc1ccc(C(=O)c2ccccc2)c(O)c1
5. CC(=O)OCc1ccc(/C=C(\C#N)S(=O)(=O)c2ccc(Cl)cc2)o1

0.987
1.02
1.02
0.879
1.04

Entry CC1(C)C2CC[C@]3(C)C(C(=O)C=C4[C@@H]5C[C@@](C)(C(=O)O)CC[C@]5(C)CC[C@]43C)[C@@]2(C)CC[C@@H]1OC(=O)CCC(=O)O (stereo partly specified) : reported normalized growth = ?
1.01

---

Exercise: state measured normalized growth for each of the compounds provided.
Experiment: chemical genetic growth profiling, strain panel (AID 1159580);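 note: tested at 20 µM; growth read once vehicle control cultures reached saturation at 30 °C; 1 = growth at the plate median or of vehicle wells; lower values mean less growth of the strain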
Details: S. cerevisiae deletion strains, growth OD, locus YAL026C, strain drs2, hits give low values
Out of some 5,500 compounds screened, about 2,000 (36%) were called active. Inconclusive results (about 18%) are left out. Some of the results follow.

// solved cases for normalized growth follow
- Compound: "CC(=O)OC1CC23CC24CCC(OC2OCC(O)C(O)C2O)C(C)(C)C4CCC3C2(C)CC3OC4(CC(C)C3C12C)OC(O)C1(C)OC41 (configuration not stated)"
  normalized growth: "1.01 (inactive)"
- Compound: "CC(=O)O[C@]1(C(C)=O)CCC2C3C=C(C)C4=CC(=O)CCC4(C)C3CCC21C (some centres not stated)"
  normalized growth: "0.961 (inactive)"

Lab note: each compound below needs its normalized growth filled in.
1. CNc1ccccc1C(=O)N1CCc2c([nH]c3ccccc23)C1=O
2. CC(=O)O[C@H]1C(=O)[C@@]2(C)C([C@H](OC(=O)c3ccccc3)[C@]3(O)C[C@H](O)C(C)=C1C3(C)C)[C@]1(OC(C)=O)CO[C@@H]1C[C@@H]2O (some centres not stated)
3. COc1ccc2c(c1)OC[C@@H](Cc1ccc(OC)c(OC)c1)[C@@H]2O
4. CC(=O)O[C@H]1C(=O)[C@@]2(C)C([C@H](OC(=O)c3ccccc3)[C@]3(O)C[C@H](OC(=O)[C@H](O)[C@@H](NC(=O)c4ccccc4)c4ccccc4)C(C)=C1C3(C)C)[C@]1(OC(C)=O)CO[C@@H]1C[C@@H]2O (some centres not stated)
5. CC(=O)[C@H]1CCC2C3C[C@H](C)C4=CC(=O)CC[C@]4(C)C3[C@@H](O)C[C@@]21C (some centres not stated)

1 (inactive)
0.983 (inactive)
1 (inactive)
0.979 (inactive)
0.989 (inactive)

---

Test: chemical genetic growth profiling, strain panel (AID 1159580);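 note: tested at 20 µM; growth read once vehicle control cultures reached saturation at 30 °C; 1 = growth at the plate median or of vehicle wells; lower values mean less growth of the strain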
Details: S. cerevisiae deletion strains, growth OD, locus YNR049C, strain mso1, hits give low values
Out of some 5,500 compounds screened, about 2,000 (36%) were called active. About 18% were inconclusive and are not listed. Some of the results follow.
Doc: threshold 1 (exclusive). Items with normalized growth beneath it return condition met; others return condition not met.

Recorded results for 5 molecules are shown here.
- Molecule: "NC[C@@H]1O[C@H](O[C@@H]2[C@@H](CO)OC(O[C@@H]3[C@@H](O)[C@H](N)C[C@H](N)[C@H]3OC3O[C@H](CN)[C@@H](O)[C@H](O)[C@H]3N)[C@@H]2O)[C@H](N)[C@@H](O)[C@@H]1O (stereo partly drawn)"
  Group: "condition not met"
- Molecule: "CC(=O)O[C@]1(C(C)=O)CCC2C3C=C(Cl)C4=CC(=O)CC[C@]4(C)C3CC[C@@]21C (stereo partly drawn)"
  Group: "condition met"
- Molecule: "CCCCCCCCCCCCCCCCOP(=O)([O-])OCC[N+](C)(C)C"
  Group: "condition met"
- Molecule: "CCCCCC(C)N (stereo not drawn)"
  Group: "condition not met"
- Molecule: "S=C=NCc1ccccc1"
  Group: "condition met"

Check if normalized growth falls below 1 for CCCCCCCC/C=C/CCCCCCCCOP(=O)([O-])OCC[N+](C)(C)C .
condition met

Check if normalized growth falls below 1 for COc1cccc([C@]2(O)CCCC[C@H]2CN(C)C)c1 .
condition met

Check if normalized growth falls below 1 for CC(C)=CCc1c(O)cc2oc(C)cc(=O)c2c1O .
condition met

---

Assay: chemical genetic growth profiling, strain panel (AID 1159580);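 note: tested at 20 µM; growth read once vehicle control cultures reached saturation at 30 °C; 1 = growth at the plate median or of vehicle wells; lower values mean less growth of the strain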
Conditions: S. cerevisiae deletion strains, growth OD, locus YDR334W, strain swr1, hits give low values
Hit rate of the full screen: of about 5,500 compounds, about 2,000 (36%) were called active. Inconclusive results (about 18%) are left out. Some of the results follow.
Readout Label: normalized growth
Give bare numbers.

- Molecule: "NC(N)=Nc1nc(CSCCC(N)=NS(N)(=O)=O)cs1"
  normalized growth: 0.967
- Molecule: "OCCN(CCO)c1nc(N2CCCCC2)c2nc(N(CCO)CCO)nc(N3CCCCC3)c2n1"
  normalized growth: 0.974
- Molecule: "CC(C)[C@H](N)C(=O)OCCOCn1cnc2c(=O)[nH]c(N)nc21"
  normalized growth: 1.01
- Molecule: "NC[C@@H]1O[C@H](O[C@@H]2[C@@H](CO)OC(O[C@@H]3[C@@H](O)[C@H](N)C[C@H](N)[C@H]3OC3O[C@H](CN)[C@@H](O)[C@H](O)[C@H]3N)[C@@H]2O)[C@H](N)[C@@H](O)[C@@H]1O (some centres undefined)"
  normalized growth: 1.02
- Molecule: "COc1ccc([C@@H]2CC(=O)c3c(O)cc(O)cc3O2)cc1O"
  normalized growth: 0.985
- Molecule: "N=c1nc(N2CCCCC2)cc(N)n1O"
  normalized growth: 0.936
- Molecule: "CN1CCc2cc3c(cc2C1O)OCO3 (centres undefined)"
  normalized growth: 0.993
- Molecule: "C[C@@H]1O[C@@H](O[C@H]2[C@@H](Oc3cc(O)c4c(c3)O[C@H](c3ccc(O)cc3)CC4=O)O[C@H](CO)[C@@H](O)[C@@H]2O)[C@H](O)[C@H](O)[C@H]1O"
  normalized growth: 0.942

// switching to the query molecule
Entry CC(=O)O[C@H]1C(=O)[C@@]2(C)C([C@H](OC(=O)c3ccccc3)[C@]3(O)C[C@H](O)C(C)=C1C3(C)C)[C@]1(OC(C)=O)CO[C@@H]1C[C@@H]2O (some centres undefined) : reported normalized growth = ?
0.969
